Lab note: pKi readings collected with Prothrombin (Homo sapiens, UniProt P00734) for the following compounds.
Kindly note that pKi refers to -log10 of the concentration in mol/L and answer with the value alone.

Here are 3 compounds together with their reported answers.
Record Smiles	Quantity Name	Number
CC[C@@H](C)[C@H](NC(=O)[C@@H]1CCCN1C(=O)[C@H](CCC(=O)O)NC(=O)[C@H](Cc1ccc(O)cc1)NC(=O)[C@H](CC(=O)O)NC(=O)CNC(=O)CNC(=O)CNC(=O)CNC(=O)CSCC(=O)[C@H](CCCN=C(N)N)NC(=O)[C@@H]1CCCN1C(=O)[C@H](N)CC1CCCCC1)C(=O)N1CCC[C@H]1C(=O)N[C@@H](CCC(=O)O)C(=O)N[C@@H](CCC(=O)O)C(=O)N[C@@H](C)C(=O)N[C@@H](CC1CCCCC1)C(=O)N[C@H](CCC(N)=O)C(=O)O	pKi	12.46
CC[C@@H](C)[C@H](NC(=O)[C@@H]1CCCN1C(=O)[C@H](CCC(=O)O)NC(=O)[C@H](Cc1ccc(O)cc1)NC(=O)[C@H](CC(=O)O)NC(=O)CNC(=O)CNC(=O)CNC(=O)CNC(=O)[C@H](C)NCC(=O)[C@H](CCCN=C(N)N)NC(=O)[C@@H]1CCCN1C(=O)[C@H](N)CC1CCCCC1)C(=O)N1CCC[C@H]1C(=O)N[C@@H](CCC(=O)O)C(=O)N[C@@H](CCC(=O)O)C(=O)N[C@@H](Cc1ccc(O)cc1)C(=O)N[C@@H](CC1CCCCC1)C(=O)N[C@@H](CC(=O)O)C(=O)O	pKi	11.82
CC[C@@H](C)[C@H](NC(=O)[C@@H]1CCCN1C(=O)[C@H](CCC(=O)O)NC(=O)[C@H](Cc1ccc(O)cc1)NC(=O)[C@H](CC(=O)O)NC(=O)CNC(=O)CNC(=O)CNC(=O)CNC(=O)CN(C)CC(=O)[C@H](CCCNC(=N)N)NC(=O)[C@@H]1CCCN1C(=O)[C@H](N)CC1CCCCC1)C(=O)N1CCC[C@H]1C(=O)N[C@@H](CCC(=O)O)C(=O)N[C@@H](CCC(=O)O)C(=O)N[C@@H](Cc1ccc(O)cc1)C(=O)N[C@@H](CC1CCCCC1)C(=O)N[C@@H](CC(=O)O)C(=O)O	pKi	11.70

Note: attention shifts to another entry.
Give reported pKi for "CC[C@@H](C)[C@H](NC(=O)[C@@H]1CCCN1C(=O)[C@H](CCC(=O)O)NC(=O)[C@H](Cc1ccc(O)cc1)NC(=O)[C@H](CC(=O)O)NC(=O)CNC(=O)[C@H](CC(N)=O)NC(=O)CNC(=O)CNC(=O)CNC(=O)CNC(=O)CN(C)CC(=O)[C@H](CCCNC(=N)N)NC(=O)[C@@H]1CCCN1C(=O)[C@H](N)CC1CCCCC1)C(=O)N1CCC[C@H]1C(=O)N[C@@H](CCC(=O)O)C(=O)N[C@@H](CCC(=O)O)C(=O)N[C@@H](C)C(=O)N[C@@H](CC1CCCCC1)C(=O)N[C@H](CCC(=O)O)C(=O)O" (Prothrombin (Homo sapiens, UniProt P00734)) 12.06

---

Target: Prothrombin (Homo sapiens)
Experiment: Inhibitory constant against thrombin
Quantity Name: pKi
The scale used: pKi is minus the common logarithm of the concentration in molar units.

Record Smiles	pKi
CC[C@@H](C)[C@H](NC(=O)[C@H](CCC(=O)O)NC(=O)[C@H](CCC(=O)O)NC(=O)[C@H](Cc1ccccc1)NC(=O)[C@H](CC(=O)O)NC(=O)CNC(=O)CCCCCNC(=O)CNCC(=O)NCC(=O)[C@H](CCCNC(=N)N)NC(=O)[C@@H]1CCCN1C(=O)[C@H](N)Cc1ccccc1)C(=O)N1CCC[C@H]1C(=O)N[C@@H](CCC(=O)O)C(=O)N[C@@H](CCC(=O)O)C(=O)N[C@@H](Cc1ccc(O)cc1)C(=O)N[C@@H](CC(C)C)C(=O)N[C@@H](CCC(N)=O)C(=O)O	8.14

Shifting focus to the compound that follows.
Recall and state the measured pKi for "CC[C@@H](C)[C@H](NC(=O)[C@@H]1CCCN1C(=O)[C@H](CCC(=O)O)NC(=O)[C@H](Cc1ccc(O)cc1)NC(=O)[C@H](CC(=O)O)NC(=O)CNC(=O)[C@H](CC(N)=O)NC(=O)CNC(=O)CNC(=O)CNC(=O)CN[C@@H]1CCCN1CC(=O)[C@H](CCCN=C(N)N)NC(=O)[C@@H]1CCCN1C(=O)[C@H](N)CC1CCCCC1)C(=O)N1CCC[C@H]1C(=O)N[C@@H](CCC(=O)O)C(=O)N[C@@H](CCC(=O)O)C(=O)N[C@@H](C)C(=O)N[C@@H](CC1CCCCC1)C(=O)N[C@H](CCC(=O)O)C(=O)O" . 11.24
